experiment: activators of LNCaP prostate cell differentiation, primary screen, flow cytometry side scatter (AID 795); details: 4 d, at 10 µM, stronger effect = higher value;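 also: androgen-responsive LNCaP prostate cancer cells in charcoal-stripped serum medium; percent of cells past a gate set so DMSO wells show 10% shift; higher shift means more granular cells and more differentiation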
Among all 24,000 compounds or so, about 130 (0.54%) were called active. Shown is part of a subset that was picked to be rich in actives.
Overview of recorded side scatter shift for various molecules

| molecule | side scatter shift |
| --- | --- |
| CCOC(=O)N1CCC(Nc2c(NCCN3CCN(c4cccc(Cl)c4)CC3)c(=O)c2=O)CC1 | 16% (inactive) |
| O=C(CCn1c(=S)[nH]c2ccccc2c1=O)NCCCN1CCCC1=O | 6% (inactive) |
| Cc1cccc(N2C(=O)SC(N(CC(=O)O)c3cccc(C)c3)C2=O)c1 (centres undefined) | 5% (inactive) |
| O=C(CCCn1c(SCC(=O)c2ccc(F)cc2)nc2ccccc2c1=O)NCc1ccco1 | 8% (inactive) |
